Source listed as PubChem BioAssay (NCI).

# Test system: SF-268 CNS
# Assay procedure: NCI tumour cell line growth inhibition, 48 h; in the data active means GI50 below about 0.43 µM; inactive means the rest
Please state which outcome applies, choosing from true for active, false for inactive

# example entries with known answers
O=c1ccc(N=Nc2ccc([N+](=O)[O-])cc2)ccc1O = false
S=C(N/N=C(/c1ccccc1)c1ccccn1)N1CCCCC1 = true
Cc1cc(NCCCNc2ccnc3cc(Cl)ccc23)nc(N2CCN(C)CC2)n1 = false
CN(c1cc2ncc(=O)[nH]c2cc1NC(N)=NCc1ccc(Cl)cc1)C1CCCCC1 = false
[Cl][Sn]([Cl])([c]1ccccc1)[c]1ccccc1 = false
Cn1cc(C2=C(c3cn(CCO)c4ccccc34)C(=O)NC2=O)c2ccccc21 = false
CCCCOc1ccc(NC(=O)n2nc(N)c3ccccc32)cc1 = false
C#CCN(Cc1nc2cc(C(F)(F)F)ccc2nc1-c1ccccc1)c1ccc(OC(F)(F)F)cc1 = false

-- ask Could you kindly confirm the outcome this assay logged for COc1cccc(C2C3=C(COC3=O)N(CCO)c3cc(OC)ccc32)c1 (stereo not given) ?
-- reply true

-- ask Could you kindly confirm the outcome this assay logged for `Clc1ccc(/C=C/c2cc(N3CCOCC3)c3cc(Cl)c(Cl)cc3n2)cc1` ?
-- reply false

###

# System: OVCAR-3 ovarian
# Assay procedure: NCI tumour cell line growth inhibition, 48 h
Recorded TGI for the following compounds

-- ask Which TGI is listed for `Nc1cc(C(=O)O)[nH]c(=O)n1` ?
-- reply > 100 µM

-- ask Which TGI is listed for `COP(=O)(Cc1ccc(/C=C/C#N)o1)OC` ?
-- reply > 100 µM

-- ask Which TGI is listed for CN(CCCCCl)P(=O)(OCc1ccc([N+](=O)[O-])o1)OCC1OC(n2ccc(N)nc2=O)C(F)(F)C1O (configuration not stated) ?
-- reply > 45.5 µM

###

# System: HOP-62 NSCLC
# Assay procedure: NCI tumour cell line growth inhibition, 48 h
We use 2000 nM as the dividing line for TGI: on or above the line is satisfied, below is not satisfied.

O=C1CC(c2cccc(O)c2)C2(C(=O)NC(=S)NC2=O)C(c2cccc(O)c2)C1 (stereo not drawn) = satisfied
c1ccc2c(c1)Nc1ccccc1[P+]21c2ccccc2Nc2ccccc21 = not satisfied
CC/C(=C(/c1ccc(OCCN(C)C)cc1)c1ccc(OC(=O)CCC(=O)c2c(C)[nH]c(/C=C3\N=C(c4ccc[nH]4)C=C3OC)c2C)cc1)c1ccccc1 = satisfied
O=[N+]([O-])c1ccc2[nH]nc(OCc3ccccn3)c2c1 = satisfied
COc1cc2c3c(n(CCCN(CCN)CCCn4c5c(c6cc(OC)c(OC)cc6c4=O)C(=O)c4cc6c(cc4-5)OCO6)c(=O)c2cc1OC)-c1cc2c(cc1C3=O)OCO2 = not satisfied

-- ask Could you verify whether the entry COc1cc2c(cc1OCCCCCOc1cc3c(cc1OC)C(=O)N1CC(F)C[C@H]1C=N3)N=C[C@@H]1CC(F)CN1C2=O (stereo partly drawn) shows TGI of no less than 2000 nM?
-- reply not satisfied

-- ask Could you verify whether the entry `CCN1C=C/C(=C\C=C/c2cc[n+](CC)c3ccccc23)c2ccccc21` shows TGI of no less than 2000 nM?
-- reply satisfied

-- ask Could you verify whether the entry `C/C=C/C1=C(Cl)C(=O)[C@@H](Cl)[C@@]1(O)C(=O)OC` shows TGI of no less than 2000 nM?
-- reply satisfied

###

# Test system: M14 melanoma
# Assay procedure: NCI tumour cell line growth inhibition, 48 h
Recorded TGI for the following compounds

Example entries and their recorded answers appear below.
CCCCCCc1cc2cc(-c3nc4ccccc4[nH]3)c(=Nc3ccccc3C)oc2cc1O = 3.6 µM
COc1ccc2c(c1)C(=O)N1CCOC1C2C(=O)O (stereo not given) = > 100 µM
COc1ccc2c(c1)CCN=C2Cc1cc(OC)c(OC)cc1CCCl = > 100 µM

-- ask Which TGI is listed for `CCOC(=O)c1sc2ncn(Cc3cccc(Br)c3)c(=O)c2c1C` ?
-- reply 53.8 µM

-- ask Which TGI is listed for `Nc1nc(NCCO)c(N=O)c(=O)[nH]1` ?
-- reply > 100 µM

-- ask Which TGI is listed for `COCO[C@@H]1C[C@H]2C(=O)N(COC)c3ccccc3C(=O)N2C1` ?
-- reply > 100 µM

-- ask Which TGI is listed for CC(C)CC[C@H](O)[C@@H](C)[C@H]1[C@@H](OC2OC(C)C(O)C(O)C2O)C[C@H]2[C@@H]3CC=C4C[C@@H](O)CC[C@]4(C)[C@H]3[C@@H](O)C[C@]12C (stereo not given in full) ?
-- reply > 23.4 µM

-- ask Which TGI is listed for `O=[N+]([O-])c1ccc2[nH]nc(OCc3ccccn3)c2c1` ?
-- reply > 100 µM

-- ask Which TGI is listed for `COc1cc(-n2cc(-c3ccc(F)cc3)nc2SCc2ccccc2)cc(OC)c1OC` ?
-- reply > 100 µM

-- ask Which TGI is listed for COc1ccc(NC(=O)CC(=O)N2N=C(N(CCC#N)c3ccccc3Cl)CC2c2ccccc2)cc1 (stereo not given) ?
-- reply > 100 µM

###

Recorded GI50 for the following molecules
# System: TK-10 renal
# Assay procedure: NCI tumour cell line growth inhibition, 48 h

Example entries and their recorded answers appear below.
c1ccc(C2CC(c3cccc(Nc4ccncc4)c3)=NN2c2ccccc2)cc1 (stereo unspecified) = 1.86 µM
Cc1ccc(NC(=O)Cc2ccc(/C=C/C(=O)c3ncc[nH]3)cc2)cc1 = 7.93 µM
CCCCOc1ccc(NC(=O)n2nc(N)c3ccccc32)cc1 = 26.9 µM
Fc1ccc(-c2nn3c(-c4ccc(F)c(Cl)c4)nnc3s2)cc1 = 14.2 µM
CC(C)Nc1ccc(Nc2ccccc2)cc1 = 23.1 µM

Proceeding to the next molecule to report its GI50.
-- ask Which GI50 is listed for `Nc1ccccc1-c1ccc([N+](=O)[O-])cc1` ?
-- reply 25.9 µM

###

# System: SR leukemia
# Assay procedure: NCI tumour cell line growth inhibition, 48 h; in the data active = GI50 below about 0.43 µM; inactive = the rest
Please state which outcome applies, choosing from 1 for active, 0 for inactive

# example entries with known answers
Oc1ccc(CN2CCC(N3CCOCC3)CC2)c2cccnc12 = 0
CN(c1cc2ncc(=O)[nH]c2cc1NC(N)=NCc1ccc(Cl)cc1)C1CCCCC1 = 0

-- ask Could you kindly confirm the outcome this assay logged for `Cc1ccc2c(c1)c1nc3cc(C)c(C)cc3nc1n2CCN(C)C` ?
-- reply 0

-- ask Could you kindly confirm the outcome this assay logged for `CCOC(=O)c1sc2ncn(Cc3cccc(Br)c3)c(=O)c2c1C` ?
-- reply 0

-- ask Could you kindly confirm the outcome this assay logged for O=C1C2C(C(=O)[N]1[Hg][c]1cccs1)C1(Cl)C(Cl)=C(Cl)C2(Cl)C1(Cl)Cl (stereo not given) ?
-- reply 1

###

Recorded TGI for the following compounds
# Test system: SF-295 CNS
# Assay procedure: NCI tumour cell line growth inhibition, 48 h

Example entries and their recorded answers appear below.
CC/C(=C(/c1ccc(OCCN(C)C)cc1)c1ccc(OC(=O)CCC(=O)c2c(C)[nH]c(/C=C3\N=C(c4ccc[nH]4)C=C3OC)c2C)cc1)c1ccccc1 = 9.06 µM
[Cl][Sn]([Cl])([c]1ccccc1)[c]1ccccc1 = 33.5 µM
Cn1cc(C2=C(c3cccc(N)c3)C(=O)NC2=O)c2ccccc21 = > 25 µM
CC(=O)O[C@]12CCCCC1C1(O)C(O)CCCCC12 (some centres not stated) = > 100 µM
CC(C)[C@H]1CC[C@H]2[C@@H](CC[C@H]3[C@](C)(CN)CCC[C@]23C)C1 = 3.87 µM

Proceeding to the next compound to report its TGI.
-- ask Which TGI is listed for `Cc1cc(NCCCNc2ccnc3cc(Cl)ccc23)nc(N2CCN(C)CC2)n1` ?
-- reply 12.3 µM

###

Recorded TGI for the following molecules
# Test system: SF-268 CNS
# Assay procedure: NCI tumour cell line growth inhibition, 48 h
Value expressed in µM; do not type the unit.

COc1ccc(/C(Cl)=C(/c2ccc(O)cc2)c2ccc(OCCN(C)C)cc2)cc1 = 24.7
O=C(c1ccco1)N(Cc1ccco1)C(=S)Nc1ccccc1 = 85.3
O=C1C2C(C(=O)[N]1[Hg][c]1cccs1)C1(Cl)C(Cl)=C(Cl)C2(Cl)C1(Cl)Cl (stereo unspecified) = 2.84
CCOc1ccccc1NC(=O)c1cc2ccccc2cc1O = 20.4
C/C=C1/CN2CCc3c([nH]c4ccccc34)[C@@H]2C[C@@H]1Cc1[nH]ccc2c1[nH]c1cc(=O)ccc12 = 3.33
CCN(CC)CCCC(C)Nc1ccnc2cc3ccccc3cc12 (stereo unspecified) = 22.1
C=CCc1cc(-c2cc(CC=C)c(O)c(CNC)c2)cc(CNC)c1O = 33.3
C=[N+](CNC(=O)CNC(=O)C(Cc1ccc([N+](=O)[O-])cc1)NC(=O)OC(C)(C)C)C(=O)CNC(=O)C(Cc1ccc([N+](=O)[O-])cc1)NC(=O)OC(C)(C)C (stereo unspecified) = 61.8

Proceeding to the next molecule to report its TGI.
-- ask Which TGI is listed for `CCC[CH2][Sn]([CH2]CCC)([O]C(=O)c1cc(F)ccc1F)[O][Sn]([CH2]CCC)([CH2]CCC)[O]C(=O)c1cc(F)ccc1F` ?
-- reply 0.798
